Just for reference, patent US10080365B2 is where these values come from.

Listing: Disease level (%) of selected molecules
# Tested on: Septoria tritici isolates containing the G143A in the cytochrome b gene
# Protocol Description: Glass house Trial 3: control of leaf blotch on wheat caused by two Septoria tritici isolates containing G143A
# Type: in vivo
# Experimental Conditions: Resistant Septoria tritici isolate 1 (G143A mutation), 200 ppm, % diseased leaf area after about 28 days
Dear colleague, please return just the value in %, with no unit written.

Recorded Disease level (%) for `CNC(=O)C(=NOC)C(C)=CCOc1ccn(-c2ccc(F)cc2Cl)n1` with Septoria tritici isolates containing the G143A in the cytochrome b gene, please? 3

Which measured Disease level (%) belongs to `CO/C=C(C(=O)OC)\C(C)=C/COc1ccn(-c2ccc(Cl)cc2)n1` , tested on Septoria tritici isolates containing the G143A in the cytochrome b gene? 3

What reported Disease level (%) corresponds to `CNC(=O)C(=N/OC)/C(C)=C\COc1ccn(-c2ccc(Cl)cc2)n1` on Septoria tritici isolates containing the G143A in the cytochrome b gene? 1
